B1: DCAF4 (parent)
chain: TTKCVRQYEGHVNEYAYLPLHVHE

Variants of: B1
ASSAY NAME: protein stability index of a GFP-peptide fusion (GPS, HEK-293T) (PSI 1-6); higher = more stable;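 also: lentivirally expressed fusions sorted by FACS into six bins by GFP to DsRed ratio, PSI derived from sequencing read proportions per bin multiplied by bin number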
MEASUREMENT PARAMETERS: c terminus: a fixed tail appended
# protein stability index per entry
VALUE TYPE: protein stability index

SEQUENCE INPUT | ENDPOINT VALUE
TTKHVRQYEGHVNEYAYLPLHVHE [C4H] | 3.19
TTKCVRQYEGIVNEYAYLPLHVHE [H11I] | 2.75
TTKCVRQYEGHVNRYAYLPLHVHE [E14R] | 2.34
TTKCVRQYEGHVNEYAYLPLHVHC [E24C] | 2.25
TTKCVRQYEGHVNEYAHLPLHVHE [Y17H] | 2.94
TTKCVRQYEGHVNEYAYLGLHVHE [P19G] | 2.26
TTKCVRQYEGHVNEYAYLPKHVHE [L20K] | 2.8
TTKCVRLYEGHVNEYAYLPLHVHE [Q7L] | 2.28
TTKKVRQYEGHVNEYAYLPLHVHE [C4K] | 2.83
TTKCVTQYEGHVNEYAYLPLHVHE [R6T] | 2.49
TTKCVLQYEGHVNEYAYLPLHVHE [R6L] | 2.18
TTKCVRQYEVHVNEYAYLPLHVHE [G10V] | 2.14
TTKCVRQFEGHVNEYAYLPLHVHE [Y8F] | 2.69
TTKCVNQYEGHVNEYAYLPLHVHE [R6N] | 2.95
TTKCVRQYEGHVNEMAYLPLHVHE [Y15M] | 2.96
TTVCVRQYEGHVNEYAYLPLHVHE [K3V] | 2.02
TTKCVRQYEGHVNEYAYLPLHVEE [H23E] | 3.21
TTKCWRQYEGHVNEYAYLPLHVHE [V5W] | 2.46
TTKCVRQYEGHVNEYAYLPLHVHG [E24G] | 2.75
TTKCVRQYEGHVNEYAYLPAHVHE [L20A] | 2.78
RTKCVRQYEGHVNEYAYLPLHVHE [T1R] | 2.22
TTKCVRQYEGHVNEYAYLPLHVRE [H23R] | 2.48
